Every entry's value here was drawn from patent US5021421A.

# assayed.target: adrenaline (α1) receptor
# method.description: In vitro binding to adrenaline (α1) receptor, [3H] WB-4101
# condition.parameters: [3H] WB-4101, rat brain crude synaptosome fraction
pIC50: −log10 of the molar value.
pIC50 below 7 gives class 0; pIC50 at or above it gives class 1.

Here are 7 compounds together with their reported answers.
compound	classification
CCN1CCN(c2cc(-c3ccccc3)c3c(n2)CCCCC3)CC1 [Example 23]	class 0
c1ccc(-c2cc(N3CCNCC3)nc3c2CCCC3)cc1 [Example 86]	class 0
Fc1ccc(-c2cc(N3CCNCC3)nc3c2CCCCC3)cc1 [Example 97]	class 0
Fc1ccc(-c2cc(N3CCNCC3)nc3c2CCCC3)cc1 [Example 92]	class 0
CCN1CCN(c2cc(-c3ccccc3)c3c(n2)C2CCC3C2)CC1 (stereo not drawn) [Example 71]	class 1
CCN1CCN(c2cc(-c3ccc(F)cc3)c3c(n2)CCCC3)CC1 [Example 15]	class 1
CCN1CCN(c2cc(-c3ccc(F)cc3)c3c(n2)C2CCC3C2)CC1 (stereo not drawn) [Example 73]	class 1

// switching to the query compound
Decide: is the reported value of pIC50 for CCN1CCN(c2cc(-c3ccc(F)cc3)c3c(n2)CCC3)CC1 [Example 6] equal to or greater than 7?
class 1

###

# System: brain monoamine metabolites
# method.description: Increasing effect on concentration of brain monoamine metabolites
# Assay type: in vivo, mice (Std-ddy strain)
# condition.parameters: Mus musculus; dose 10 mg/kg, 2 h; non-dosed=100; read-out: 5-HIAA concentration, % of control
Counter-ions that a name gives are not always drawn.
Would you kindly list response vs control in vivo at 10 mg/kg for each of these compounds?
Numbers only, in %.

These recorded examples may help you get a feel for the data.
compound	response vs control in vivo at 10 mg/kg (%)
CCN1CCN(c2cc(-c3ccc(F)cc3)c3c(n2)CCCC3)CC1 [Example 15]	108
OCCN1CCN(c2cc(-c3ccccc3)c3c(n2)CCCCC3)CC1 [Example 24]	150
Fc1ccc(-c2cc(N3CCNCC3)nc3c2CCC3)cc1 [Example 88]	120
C[C@@H]1CN(c2cc(-c3ccc(F)cc3)c3c(n2)CCCCCC3)C[C@H](C)N1C [Example 117, fumarate]	100

In the following, a different compound is considered.
Item under review: Fc1ccc(-c2cc(N3CCNCC3)nc3c2CCCC3)cc1 [Example 92] . Reported response vs control in vivo at 10 mg/kg?
139

###

The following compounds each carry a recorded IC50 for serotonin (S2) receptor (Rattus norvegicus).

compound	value.kind	endpoint.result
c1ccc(-c2cc(N3CCNCC3)nc3c2CCC3)cc1 [Example 87]	IC50	28 nM
CCN1CCN(c2cc(-c3ccc(F)cc3)c3c(n2)CCC3)CC1 [Example 6]	IC50	7.6 nM
CCN1CCN(c2cc(-c3ccc(F)cc3)c3c(n2)CCCCCC3)CC1 [Example 1a]	IC50	9.9 nM
CCN1CCN(c2cc(-c3ccccc3)c3c(n2)CCCCC3)CC1 [Example 23]	IC50	7.7 nM
Cc1nc(N2CCN(c3ccccc3)CC2)cc(-c2ccc(F)cc2)c1-c1ccc(F)cc1 [Test Compound A, reference compound]	IC50	> 10000 nM

Value sought for every listed compound: IC50.
1. Fc1ccc(-c2cc(N3CCNCC3)nc3c2CCC3)cc1 [Example 88]
2. c1ccc(-c2cc(N3CCNCC3)nc3c2CCCCCC3)cc1 [Example 103]
3. CCN1CCN(c2cc(-c3ccccc3)c3c(n2)C2CCC3C2)CC1 (stereo not shown) [Example 71]
4. CCN1CCN(c2cc(-c3ccc(F)cc3)c3c(n2)CCCCCC3)CC1 [Example 1b]

1. 9.1 nM
2. 41 nM
3. 14 nM
4. 7 nM

Item under review: Fc1ccc(-c2cc(N3CCNCC3)nc3c2CCCCC3)cc1 [Example 97] . Reported IC50?
5.1 nM

###

# Test system: brain monoamine metabolites
# method.description: Increasing effect on concentration of brain monoamine metabolites
# Type: in vivo, mice (Std-ddy strain)
# condition.parameters: Mus musculus; dose 10 mg/kg, 2 h; non-dosed=100; read-out: 5-HIAA concentration, % of control
value.kind: response vs control in vivo at 10 mg/kg (%)
Answers are plain numbers, in %.

These recorded examples may help you get a feel for the data.
compound	response vs control in vivo at 10 mg/kg / %
c1ccc(-c2cc(N3CCNCC3)nc3c2CCC3)cc1 [Example 87]	136
c1ccc(-c2cc(N3CCNCC3)nc3c2CCCCC3)cc1 [Example 96]	127
CCN1CCN(c2cc(-c3ccc(F)cc3)c3c(n2)CCC3)CC1 [Example 6]	103
CCN1CCN(c2cc(-c3ccccc3)c3c(n2)CCCCC3)CC1 [Example 23]	145
CC(C)N1CCN(c2cc(-c3ccc(F)cc3)c3c(n2)CCCCCC3)CC1 [Example 121]	111

Value sought for every listed compound: response vs control in vivo at 10 mg/kg.
1. CCN1CCN(c2cc(-c3ccc(F)cc3)c3c(n2)CCCCCCC3)CC1 [Example 56]
2. Fc1ccc(-c2cc(N3CCNCC3)nc3c2CCCCCC3)cc1 [Example 104]
3. CCCCCCN1CCN(c2cc(-c3ccc(F)cc3)c3c(n2)CCCCCC3)CC1 [Example 124]

1. 110
2. 97
3. 107

Value sought for every listed compound: response vs control in vivo at 10 mg/kg.
1. Fc1ccc(-c2cc(N3CCNCC3)nc3c2CCCCC3)cc1 [Example 97]
2. Fc1ccc(-c2cc(N3CCN(C4CCCCC4)CC3)nc3c2CCCCCC3)cc1 [Example 39]

128
97

###

# assayed.target: dopamine (D2) receptor (Rattus norvegicus)
# Construct: Crude synaptosome fractions were prepared from some brain regions in rats for receptor sources; from tissue
# method.description: In vitro binding to dopamine (D2) receptor, [3H] spiperone
# Set-up: species or system rats
value.kind: pIC50
One number for each entry, as −log10 of the molar value.

Item under review: Fc1ccc(-c2cc(N3CCNCC3)nc3c2CCC3)cc1 [Example 88] . Reported pIC50?
7.15

###

# assayed.target: dopamine (D2) receptor (Rattus norvegicus, UniProt P61169)
# Construct: Crude synaptosome fractions were prepared from some brain regions in rats for receptor sources; from tissue
# Sequence (P61169 whole entry): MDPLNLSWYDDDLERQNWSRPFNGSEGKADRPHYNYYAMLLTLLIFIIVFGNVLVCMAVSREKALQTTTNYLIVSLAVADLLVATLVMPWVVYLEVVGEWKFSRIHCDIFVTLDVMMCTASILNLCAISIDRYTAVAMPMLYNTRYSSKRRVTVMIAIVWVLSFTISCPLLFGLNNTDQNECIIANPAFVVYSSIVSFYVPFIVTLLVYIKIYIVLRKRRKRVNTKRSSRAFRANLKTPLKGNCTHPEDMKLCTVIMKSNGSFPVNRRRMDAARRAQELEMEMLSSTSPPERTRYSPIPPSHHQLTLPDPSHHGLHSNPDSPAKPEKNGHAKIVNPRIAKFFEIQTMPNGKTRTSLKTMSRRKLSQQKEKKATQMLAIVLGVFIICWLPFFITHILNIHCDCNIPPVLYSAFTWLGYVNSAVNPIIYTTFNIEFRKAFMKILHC
# method.description: In vitro binding to dopamine (D2) receptor, [3H] spiperone
# Set-up: species or system rats
# condition.parameters: [3H] spiperone, rat brain crude synaptosome fraction; read-out: IC50 D2
value.kind: IC50

These recorded examples may help you get a feel for the data.
compound	IC50
Cc1nc(N2CCN(c3ccccc3)CC2)cc(-c2ccc(O)cc2)c1-c1ccc(O)cc1 [Test Compound C, reference compound]	> 10 µM
Cc1nc(N2CCN(c3ccccc3)CC2)cc(-c2ccc(F)cc2)c1-c1ccc(F)cc1 [Test Compound A, reference compound]	> 10 µM

In the following, a different compound is considered.
Item under review: COc1ccc(-c2cc(N3CCN(c4ccccc4)CC3)nc(C)c2-c2ccc(OC)cc2)cc1 [Test Compound B, reference compound] . Reported IC50?
> 10 µM

###

# assayed.target: adrenaline (α1) receptor
# method.description: In vitro binding to adrenaline (α1) receptor, [3H] WB-4101
# condition.parameters: [3H] WB-4101, rat brain crude synaptosome fraction
value.kind: IC50 (nM)
Answers are plain numbers, in nM.

compound	IC50 [nM]
Fc1ccc(-c2cc(N3CCNCC3)nc3c2CCC3)cc1	65
CCN1CCN(c2cc(-c3ccc(F)cc3)c3c(n2)CCCCCC3)CC1 [Example 1b]	92
CCN1CCN(c2cc(-c3ccc(F)cc3F)c3c(n2)CCCCCC3)CC1	88

In the following, a different compound is considered.
Item under review: "c1ccc(-c2cc(N3CCNCC3)nc3c2CCC3)cc1" . Reported IC50?
94
